Data credit: patent US6207677A

TEST SYSTEM: sigma receptors
METHOD: Inhibition of 3H-DTG binding to sigma receptors in rat brain in vitro
SETUP CONDITIONS: 2 nM 3H-DTG, rat brain without cerebellum, 25° C., 20 min
pIC50: −log10 of the molar value.
Output T for pIC50 not less than 9; output F otherwise.

COMPOUND | CATEGORY LABEL
c1ccc2c(c1)COC21CCN(CCCCc2c[nH]c3ccccc23)CC1 | T

[in] Check if pIC50 >= 9 (inclusive). Item: `C1=C(CCCCN2CCC3(CC2)OCc2ccccc23)c2ccccc2C1`
[out] T

[in] Record: O=C1Nc2ccccc2C1CCCCN1CCC(c2ccc(F)cc2)CC1 (centres unmarked)
[out] F

[in] Record: `c1ccc(OCCCN2CCC3(CC2)Cc2ccccc2CO3)cc1`
[out] F

[in] Record: c1ccc2c(c1)COC21CCN(CCCCc2csc3ccccc23)CC1 [Compound 10a]
[out] T

[in] Record: Fc1ccc(C2CCN(CCOc3cn(-c4ccc(F)cc4)c4ccc(Cl)cc34)CC2)cc1 [Compound 14b]
[out] F

[in] Record: `Fc1ccc2occ(CCCCN3CCC4(CC3)OCc3ccccc34)c2c1`
[out] T

[in] Record: `c1ccc2c(c1)COC21CCN(CCCCc2cn(-c3ccncc3)c3ccccc23)CC1`
[out] F
